Provenance of the data: ChEMBL document CHEMBL4325899

# procedure_summary: Solubility of the compound in DMSO
# Format: physicochemical
assay_readout: solubility

smiles_repr	assay_readout	data_value
COc1cc(-c2nc3c(nc(C)c4ccc(C)nc43)o2)cc(OC)c1OC	solubility	Soluble
Cc1ccc2c(C)nc3c(nnn3-c3ccccc3)c2n1	solubility	Soluble
COc1ccc(-c2ccc3c(C)nc4oc(-c5cc(OC)c(OC)c(OC)c5)nc4c3n2)cc1	solubility	Insoluble
Cc1nc2oc(-c3ccccc3)nc2c2nc(-c3ccccc3)ccc12	solubility	Insoluble
COc1ccc(-n2nnc3c4nc(C)ccc4c(C)nc32)cc1	solubility	Soluble
Cc1ccc2c(C)nc3oc(-c4ccccc4)nc3c2n1	solubility	Soluble
COc1cc(-n2nnc3c4nc(-c5ccccc5)ccc4c(C)nc32)cc(OC)c1OC	solubility	Soluble
COc1cc(-n2nnc3c4nc(C)ccc4c(C)nc32)cc(OC)c1OC	solubility	Insoluble
Cc1nc2c(nnn2-c2ccccc2)c2[nH]c(=O)ccc12	solubility	Soluble
COc1ccccc1-c1ccc2c(C)nc3c(nnn3-c3ccccc3)c2n1	solubility	Insoluble

Per the record, COc1ccc(-c2ccc3c(C)nc4c(nnn4-c4ccccc4)c3n2)cc1 has solubility of Soluble

Per the record, COc1ccc(-c2ccc3c(C)nc4c(nnn4-c4ccc(OC)cc4)c3n2)cc1 has solubility of Soluble

Per the record, COc1ccc(-c2ccc3c(C)nc4oc(-c5ccc(OC)cc5)nc4c3n2)cc1 has solubility of Insoluble

Per the record, COc1ccccc1-c1ccc2c(C)nc3oc(-c4ccccc4)nc3c2n1 has solubility of Soluble

Per the record, COc1ccccc1-c1ccc2c(C)nc3c(nnn3-c3cc(OC)c(OC)c(OC)c3)c2n1 has solubility of Soluble

Per the record, COc1ccc(-c2nc3c(nc(C)c4ccc(=O)[nH]c43)o2)cc1 has solubility of Insoluble

Per the record, COc1cc(-c2nc3c(nc(C)c4ccc(-c5ccccc5)nc43)o2)cc(OC)c1OC has solubility of Soluble

Per the record, COc1ccc(-c2nc3c(nc(C)c4ccc(C)nc43)o2)cc1 has solubility of Soluble

Per the record, COc1cc(-c2nc3c(nc(C)c4ccc(=O)[nH]c43)o2)cc(OC)c1OC has solubility of Insoluble

---

# procedure_summary: Phototoxicity index, ratio of CC50 for human MCF10A cells to EC50 for human MCF10A cells under UV irradiation at 1.5 J/cm2
# Assay type: cell-based, MCF-10A
# condition_set: read-out: Ratio CC50/EC50
assay_readout: selectivity ratio

Use these answered entries as a reference point.
smiles_repr	assay_readout	data_value
COc1ccccc1-c1ccc2c(C)nc3oc(-c4cc(OC)c(OC)c(OC)c4)nc3c2n1	selectivity ratio	> 27
COc1ccc(-c2ccc3c(C)nc4c(nnn4-c4ccccc4)c3n2)cc1	selectivity ratio	> 505
COc1ccccc1-c1ccc2c(C)nc3oc(-c4ccccc4)nc3c2n1	selectivity ratio	> 43
COc1ccc(-c2nc3c(nc(C)c4ccc(-c5ccccc5)nc43)o2)cc1	selectivity ratio	> 58

Please look at the following compound next.
Per the record, COc1cc(-c2nc3c(nc(C)c4ccc(-c5ccccc5)nc43)o2)cc(OC)c1OC has selectivity ratio of > 11

---

# procedure_summary: Solubility of the compound in DMSO
# Assay type: physicochemical
assay_readout: solubility

smiles_repr	assay_readout	data_value
Cc1nc2c(nnn2-c2ccccc2)c2nc(-c3ccccc3)ccc12	solubility	Soluble
COc1ccccc1-c1ccc2c(C)nc3oc(-c4cc(OC)c(OC)c(OC)c4)nc3c2n1	solubility	Soluble
